Across several publications, the following Ki results were reported for Adenosine receptor A2a (Homo sapiens).

Example compounds with recorded Ki:
Cc1nc2c(N)nc(NCCc3ccccc3)nc2s1 ... 78 nM
Nc1nc(-c2ccc(NC(=O)CCNCc3ccc(S(N)(=O)=O)cc3)cc2)cn2c(=O)n(-c3ccccc3)nc12 ... 96.3 nM
CCOC(=O)c1cc(-c2ccc(Br)cc2)cc2c(N)sc(Br)c12 ... > 100000 nM

Prompt: Param readout= Ki; system= Adenosine receptor A2a (Homo sapiens); entry= Nc1nc(OCCCCc2ccccc2)nc2c1ncn2[C@@H]1O[C@H](CO)[C@@H](O)[C@H]1O ; returns value.
Response: 519 nM

Prompt: Which measured Ki belongs to CCn1nnc([C@H]2O[C@@H](n3cnc4c(N)nc(N(C)C)nc43)[C@H](O)[C@@H]2O)n1 , tested on Adenosine receptor A2a (Homo sapiens)?
Response: 3710 nM

---

Collected set of Ki measured with Adenosine receptor A2a (Homo sapiens, UniProt P29274) across studies.
Sequence (P29274 whole entry): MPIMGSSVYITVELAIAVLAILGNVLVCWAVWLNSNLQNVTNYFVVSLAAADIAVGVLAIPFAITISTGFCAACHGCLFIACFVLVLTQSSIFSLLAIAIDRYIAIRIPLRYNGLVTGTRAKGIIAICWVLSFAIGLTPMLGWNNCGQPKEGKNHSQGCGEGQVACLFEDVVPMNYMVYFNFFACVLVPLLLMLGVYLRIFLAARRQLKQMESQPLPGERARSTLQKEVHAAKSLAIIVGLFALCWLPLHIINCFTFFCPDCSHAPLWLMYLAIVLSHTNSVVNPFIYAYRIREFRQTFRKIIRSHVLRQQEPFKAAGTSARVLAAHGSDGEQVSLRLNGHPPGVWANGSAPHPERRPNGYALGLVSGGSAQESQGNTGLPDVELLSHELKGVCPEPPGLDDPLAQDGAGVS

Take a look at these entries with their results.
O=C(Nc1cccc(Cl)c1)Nc1nc(-c2ccccc2)nc2nn(CCc3ccccc3)cc12 ... > 10 µM
Nc1cc(-c2ccco2)cn2cc(-c3ccco3)nc12 ... > 10 µM

Please examine the following record next.
Prompt: Adenosine receptor A2a (Homo sapiens, UniProt P29274) / Ki / Cc1cn2c3c(=O)[nH]c(=O)n(Cc4ccccc4)c3nc2n1C(C)CO (stereo not drawn) : value?
Response: > 1 µM

---

pKi: −log10 of the molar value.
Target or system Adenosine receptor A2a (Homo sapiens); metric pKi; compiled from varied reports.

Guide cases for pKi, answers given:
CC(C)Cn1c(=O)[nH]c2nc(-c3cnn(Cc4cccc(C(F)(F)F)c4)c3)[nH]c2c1=O ... < 5.30
Cn1cc2c(nc(NC(=O)c3ccccc3)n3nc(-c4ccc([N+](=O)[O-])cc4)nc23)n1 ... < 4.00
CC(=O)Oc1ccc2cc(-c3cccs3)c(=O)oc2c1OC(C)=O ... < 4.00
Sc1nc2ccccc2c2nn(-c3ccccc3)cc12 ... < 6.00
O=c1ccc(Nc2ncc(-c3ccncn3)c(-c3ccco3)n2)cn1CC1CC1 ... < 5.60

Prompt: // returns reported pKi for input C=CCN1C(=O)N2CC(C)N=C2c2[nH]c(-c3cc(C)n(C)n3)nc21 (racemic)
Response: < 5.30

Prompt: pKi for CC(=O)Nc1nc2sc(C)c(C)c2c(=O)[nH]1 ?
Response: < 4.52

Prompt: Need pKi, item [O-][n+]1cccc(Nc2ncc(-c3ccncn3)c(-c3ccco3)n2)c1
Response: < 5.60

Prompt: pKi for CCCn1c(=O)c2c(nc3[nH]c(C)cn32)n(Cc2cccnc2)c1=O ?
Response: < 6.00

---

pKi values for UniProt P29274, compiled from several publications.
pKi: −log10 of the molar value.

CCOC(=O)c1cnc(SCC(=O)O)nc1N ... < 4.00
CCNC(=O)[C@H]1OC(n2cnc3c(NC(=O)Nc4ccc(S(=O)(=O)NC5CCCCC5)cc4)ncnc32)C(O)C1O (single isomer, unassigned) ... < 6.00
O=c1c(-c2ccco2)nnc2n(-c3ccccc3)c3ccc(Cl)cc3n12 ... < 5.00

Prompt: Which pKi value belongs to CCNC(=O)[C@H]1O[C@@H](n2cnc3c(Nc4ccc(OCC(=O)Nc5ccc(Cl)cc5)cc4)ncnc32)[C@H](O)[C@@H]1O ?
Response: < 6.00

Prompt: Tell me the measured pKi of O=c1c(-c2ccccc2)nnc2n(-c3ccc(Cl)cc3)c3ccccc3n12 , please.
Response: < 5.00

Prompt: Entry Nc1ncnc2ncn(CCO)c12 has what pKi?
Response: < 4.00

---

Listed below are compounds with Ki for Adenosine receptor A2a (Homo sapiens, UniProt P29274), each taken from published literature.
Express it in nM; write the number only.

Worked examples follow.
CNc1nc2nn(C)cc2c2nc(-c3ccco3)nn12 ... 368
COc1ccc(CNc2nc3nn(C)cc3c3nc(-c4ccco4)nn23)cc1OC ... 64.1
CCCn1c(=O)c2[nH]c(-c3ccc(OCC(=O)Nc4ccc(CC(=O)O)cc4)cc3)cc2n(CCC)c1=O ... 224
CN(C)CCOc1cccc(-c2nc3c([nH]2)c(=O)n(C)c(=O)n3C)c1 ... 400

Prompt: Please give the measured Ki for this compound: CCNC(=O)[C@H]1O[C@@H](n2cnc3c(N)nc(NCCc4ccc(CCC(=O)Nc5ccc(OC(=O)CCCC[C@@H]6SC[C@@H]7NC(=O)N[C@@H]76)c([N+](=O)[O-])c5)cc4)nc32)[C@H](O)[C@@H]1O
Response: 3280

Prompt: Entry CCCn1c(=O)c2nc([C@H]3CC[C@H](C(=O)NCCN(C)C)CC3)[nH]c2n(CCC)c1=O : reported Ki = ?
Response: 168

Prompt: Fill in: Ki of CCCn1c(=O)c2[nH]c(-c3ccc(OCC(=O)Nc4ccc(C(=O)O)cc4)cc3)nc2n(CCC)c1=O is ___
Response: 39

Prompt: Which Ki is reported for this compound? Cn1cc2c(nc(NC(=O)NC3CCN(C(=O)NCc4ccc(F)cc4)CC3)n3nc(-c4ccco4)nc23)n1
Response: 3260

Prompt: Return reported Ki; argument: CCCn1cc2nc(N)n3nc(-c4ccco4)nc3c2n1
Response: 17

Prompt: For the compound Clc1ccc(C#Cc2nc(N[C@@H]3CCOC3)c3nc[nH]c3n2)s1 , what Ki is on record?
Response: 2370

Prompt: Which measured Ki value corresponds to CC(C)n1cnc2c(N)ncnc21 ?
Response: 4100

Prompt: Recorded Ki for Nc1nc(NCCCc2ccc(C(=O)NO)cc2)nc2nc(-c3ccco3)nn12 , please?
Response: 8.4

Prompt: May I ask what Ki has been recorded for COc1ccc2[nH]cc(CCOc3nc(N)c4ncn([C@@H]5O[C@H](CO)[C@@H](O)[C@H]5O)c4n3)c2c1 ?
Response: 1400

Prompt: Returns the measured Ki for the input compound. Input: Nc1nc(-c2ccc(NC(=O)CCN3CCCC3)cc2)cn2c(=O)n(-c3ccccc3)nc12
Response: 4.31

Prompt: Quick one: Ki of Cn1c(Cc2c(F)cccc2F)nc2c1c(=O)n(CC1CC1)c(=O)n2Cc1ccco1 ?
Response: 1820

Prompt: Any idea what Ki was measured for O=c1[nH]c(-c2ccccc2)cn2c(=O)n(-c3ccc(O)cc3)nc12 ?
Response: 387

Prompt: // lookup Ki for CCOC(=O)c1c(NC(=O)c2sc(Nc3ccc(C)cc3)nc2N(C)C)sc2c1CCCC2
Response: 18000

Prompt: GET /values?readout=Ki&item= COc1cccc2cc(C(=O)NCC(O)c3ccccc3)c(=N)oc12 (centres undefined)
Response: 501

Prompt: Give its Ki value. Item: Nc1nc2c(cnn2CCN2CCN(c3ccc(O)cc3)CC2)c2nc(-c3ccco3)nn12
Response: 1.3

Prompt: Entry COc1ccccc1-n1cc2nc(-c3ccc(C)o3)nc(N)c2n1 : reported Ki = ?
Response: 518

Prompt: Entry N=C(NC(=O)C(Cc1ccccc1)N1C(=O)c2ccccc2C1=O)Nc1nc2ccccc2o1 (centres undefined) has what Ki?
Response: 3980

Prompt: I am curious: what Ki value has been reported for CN(C)c1nc(-c2cnccn2)c2sccc2n1 ?
Response: 81

Prompt: Consider the compound CNC(=O)[C@H]1[Se][C@@H](n2cnc3c(NCc4ccc5ccccc5c4)ncnc32)[C@H](O)[C@@H]1O and give its measured Ki.
Response: 195

---

// merged dataset of log10 of Ki values, system = Adenosine receptor A2a (Homo sapiens, UniProt P29274), multiple refs
Log10 applied to Ki; unit prior to transform: nM.

Below, each entry is followed by its recorded log10 of Ki result.
Cn1cc2c(nc(NC(=O)Cc3ccc(Cl)cc3)n3nc(-c4ccco4)nc23)n1 ... 2.19
Nc1ncnc2c1ncn2CCO ... 4.04
COC(=O)[C@H]1CCCN1c1cc(NC(C)=O)nc(-n2nc(C)cc2C)n1 ... 2.31
CCCC(=O)Nc1nnc(-c2ccccc2)[nH]1 ... 3.04
Cc1nc2c(=O)n(Cc3ccccc3)nc(-c3cccnc3)c2c2cc(-c3ccccc3)nn12 ... 3.32

Prompt: What log10 of Ki value was documented for this compound, CCCCCCC(C)Nc1nc2nn(C)cc2c2nc(-c3ccco3)nn12 (stereo unspecified) ?
Response: 2.85

Prompt: Give the measured log10 of Ki of COc1ccc(-c2cnn(-c3nc(N)c4ncn([C@@H]5O[C@H](CO)[C@@H](O)[C@H]5O)c4n3)c2)cc1 .
Response: 2.28

Prompt: Return reported log10 of Ki; argument: CCN(C(C)=O)c1ccc(OC)c2nc(NC(=O)c3ccc(NS(C)(=O)=O)cc3)sc12
Response: 1.66

---

pKi: −log10 of the molar value.
Below, pKi values reported for Adenosine receptor A2a (Homo sapiens, UniProt P29274) across several publications.

// solved cases for pKi follow
Oc1nc2ccccc2c2nn(-c3ccccc3)cc12 ... < 6.00
CCc1ccc(-n2cc3c(=O)[nH]c4ccccc4c3n2)cc1 ... < 6.00
Cn1cc2c(n1)[nH]c(=O)n1nc(-c3ccco3)nc21 ... < 4.52
CC(C)Cn1cnc2c(N)ncnc21 ... < 4.00
CCCn1c(=O)c2nc(-c3cnn(Cc4noc(-c5ccc(OC)cc5)n4)c3)[nH]c2n(CCC)c1=O ... < 5.30

Consider the record given below.
Prompt: Param readout = pKi; param system = Adenosine receptor A2a (Homo sapiens, UniProt P29274); param query = COc1ccc(-n2nc3c(=O)[nH]c(C)cn3c2=O)cc1 ; response: value
Response: < 4.52
